# test_system: recombinant human DAO (diamine oxidase) (Homo sapiens)
# Construct: purchased R&D systems
# Sequence (P19801 20-751): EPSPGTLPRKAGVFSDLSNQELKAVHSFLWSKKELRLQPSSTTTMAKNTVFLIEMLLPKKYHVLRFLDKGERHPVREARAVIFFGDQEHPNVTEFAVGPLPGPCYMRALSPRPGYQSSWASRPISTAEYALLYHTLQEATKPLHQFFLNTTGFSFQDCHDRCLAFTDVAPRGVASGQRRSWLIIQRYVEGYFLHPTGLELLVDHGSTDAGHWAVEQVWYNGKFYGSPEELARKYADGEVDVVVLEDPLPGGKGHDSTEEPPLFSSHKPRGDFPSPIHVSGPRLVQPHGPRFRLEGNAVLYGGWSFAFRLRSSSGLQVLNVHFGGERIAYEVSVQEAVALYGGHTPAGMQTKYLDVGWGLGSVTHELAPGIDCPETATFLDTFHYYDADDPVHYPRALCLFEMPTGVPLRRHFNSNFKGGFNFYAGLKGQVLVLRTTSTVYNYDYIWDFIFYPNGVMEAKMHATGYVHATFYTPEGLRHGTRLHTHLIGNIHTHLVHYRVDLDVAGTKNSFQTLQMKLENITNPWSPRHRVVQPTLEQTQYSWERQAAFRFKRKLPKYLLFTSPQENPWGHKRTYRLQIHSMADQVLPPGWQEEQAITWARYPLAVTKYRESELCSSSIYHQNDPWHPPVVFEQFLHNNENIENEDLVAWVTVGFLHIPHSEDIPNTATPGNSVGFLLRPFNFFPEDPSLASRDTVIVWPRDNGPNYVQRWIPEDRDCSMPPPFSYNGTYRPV
# protocol_summary: Activity evaluation on recombinant human DAO (Amplex Red/HRP-coupled assay, 1 mM putrescine substrate)
# Assay type: biochemical
# condition_info: 1 mM putrescine substrate, read-out: Inhibitory Activity (IC50, nM) DAO
Where a name gives a salt, the structure may show the parent alone.
parameter: IC50 (nM)

Worked examples, 5 compounds total:
- compound: "Cc1cc(-c2ccc(N3CCNCC3)nc2)cnc1-n1cnn(CC(CN)=C(F)F)c1=O [Example 220, Ditrifluoroacetate]"
  parameter: "IC50"
  quantitative_readout: 11000
- compound: "CN1C(=O)CCc2cc(-c3ccc4cc(Cn5cnn(CC(CN)=C(F)F)c5=O)sc4c3)ccc21 [Example 203, Trifluoroacetate]"
  parameter: "IC50"
  quantitative_readout: 4000
- compound: "Cc1cc(-c2ccc3c(c2)OCCN3C)cnc1-n1cnn(CC(CN)=C(F)F)c1=O [Example 223, Trifluoroacetate]"
  parameter: "IC50"
  quantitative_readout: 37000
- compound: "NCC(Cn1ncn(Cc2cc3ccc(-c4ccc(N5CCNCC5)cc4)cc3s2)c1=O)=C(F)F [Example 198, Ditrifluoroacetate]"
  parameter: "IC50"
  quantitative_readout: 880
- compound: "CCn1cc(-c2cc(F)c(Cn3cnn(CC(CN)=C(F)F)c3=O)s2)ccc1=O [Example 299, Trifluoroacetate]"
  parameter: "IC50"
  quantitative_readout: 9680

(P) CS(=O)(=O)c1ccc(-c2ccc3sc(Cn4cnn(CC(CN)=C(F)F)c4=O)cc3c2)cc1 [Example 205, Trifluoroacetate]
(Q) CN(C)c1ccc(-c2cccc(Cn3cnn(CC(CN)=C(F)F)c3=O)c2)cn1 [Example 273, Trifluoroacetate]
Task: Lab notebook, comparison: P versus Q , higher IC50 goes to which? Give the label of your selection.
Result: Q

(a) CC(=O)N1CCN(c2ccc(-c3csc(Cn4cnn(CC(CN)=C(F)F)c4=O)c3)cc2)CC1 [Example 188, Trifluoroacetate]
(b) NCC(Cn1ncn(Cc2sc(-c3ccc(N4CCNCC4)cc3)cc2F)c1=O)=C(F)F [Example 298, ditrifluoroacetate]
Task: Please indicate which has the smaller reported IC50: a , or b . Please reply using the label of the selected record.
Result: b
(b: 0.2 nM, a: 7400 nM)

(1) Cc1cc(-c2ccc(Cn3cnn(CC(CN)=C(F)F)c3=O)cc2)cc2c1NC(=O)CC2 [Example 269, Trifluoroacetate]
(2) NCC(Cn1ncn(Cc2cc(-c3ccc4c(c3)CCC(=O)N4)cs2)c1=O)=C(F)F [Example 192, Trifluoroacetate]
Task: Among 1 and 2 , which shows a numerically higher IC50 result? Please respond with the label that marks your chosen entry.
Result: 1
(1: 71000 nM, 2: 22000 nM)
